Test system: MCF7
Assay: Antiproliferative activity against human MCF7 cells assessed as cell growth at 100 uM after 48 hrs by alamar blue assay
Assay type: functional
Conditions: MCF7, 48 h, read-out: Activity
For each record, write down the corresponding growth at 100 µM.
Numbers only, in %.

Take a look at these entries with their results.
{"Smiles Code": "CC(=O)Oc1ccc(/C=C/c2cc(F)cc(F)c2)cc1", "growth at 100 µM / %": 22}
{"Smiles Code": "Fc1ccc(/C=C/c2cc(F)cc(F)c2)cc1", "growth at 100 µM / %": 82}

# batch size: 2; output growth at 100 µM per entry
1. COc1cc(/C=C/c2ccc(F)cc2)cc(OC)c1
2. COc1ccc(/C=C/c2cc(F)cc(F)c2)cc1

[67, 84]

====

Test: Antiproliferative activity against MRP1-expressing human DLKP cells after 5 days by acid phosphatase assay
Format: functional, cell-based
Settings: 120 h
Please respond with reported pIC50 for every item in the list.
Answers are plain numbers, as −log10 of the molar value.

Record excerpt, results attached:
{"Smiles Code": "Oc1ccc(/C=C/c2cc(F)cc(F)c2)cc1", "pIC50": 5.22}
{"Smiles Code": "CC(=O)Nc1cc(/C=C/c2ccc(F)cc2)cc(NC(C)=O)c1", "pIC50": 4.30}
{"Smiles Code": "CC(=O)Oc1cc(/C=C/c2ccc(F)cc2)cc(OC(C)=O)c1", "pIC50": 4.60}

# batch size: 5; output pIC50 per entry
1. Oc1ccc(/C=C/c2cc(O)cc(O)c2)cc1
2. O=C(Nc1cc(/C=C/c2ccc(F)cc2)cc(NC(=O)C(F)(F)F)c1)C(F)(F)F
3. CC(=O)Nc1ccc(/C=C/c2cc(F)cc(F)c2)cc1
4. CC(=O)Oc1ccc(/C=C/c2cc(F)cc(F)c2)cc1
5. CC(=O)Oc1cc(O)cc(/C=C/c2ccc(F)cc2)c1

5.00
4.55
4.41
5.15
4.68

====

Experiment: Antiproliferative activity against P-gp expressing human DLKP-A cells assessed as cell proliferation at 5 uM after 5 days by acid phosphatase assay
Type: functional
Details: 120 h, read-out: Activity
Property Label: growth at 5 µM (%)
Answers are plain numbers, in %.

Worked cases, growth at 5 µM given:
{"Smiles Code": "CC(=O)Oc1cc(O)cc(/C=C/c2ccc(F)cc2)c1", "Property Label": "growth at 5 µM", "Readout Unit": "%", "Result Number": 90}
{"Smiles Code": "CC(=O)Oc1ccc(/C=C/c2cc(F)cc(F)c2)cc1", "Property Label": "growth at 5 µM", "Readout Unit": "%", "Result Number": 50}
{"Smiles Code": "CC(=O)Oc1cc(/C=C/c2ccc(F)cc2)cc(OC(C)=O)c1", "Property Label": "growth at 5 µM", "Readout Unit": "%", "Result Number": 89}

Now look at this entry.
Consider the compound Oc1ccc(/C=C/c2cc(F)cc(F)c2)cc1 . State its measured growth at 5 µM.
85

====

Tested on: NCI-H460
Assay: Antiproliferative activity against human NCI-H460 cells assessed as cell growth at 100 uM after 48 hrs by alamar blue assay
Assay type: functional
Details: NCI-H460, 48 h, read-out: Activity
Property Label: growth at 100 µM (%)
Numbers only, in %.

The following molecules have reported results that may help.
{"Smiles Code": "CC(=O)Oc1ccc(/C=C/c2cc(F)cc(F)c2)cc1", "System Tested": "NCI-H460", "growth at 100 µM [%]": 7}
{"Smiles Code": "COc1cc(/C=C/c2ccc(F)cc2)cc(OC)c1", "System Tested": "NCI-H460", "growth at 100 µM [%]": 60}
{"Smiles Code": "Fc1ccc(/C=C/c2cc(F)cc(F)c2)cc1", "System Tested": "NCI-H460", "growth at 100 µM [%]": 101}

Okay, next one:
Lab note: NCI-H460 assay, enter growth at 100 µM for COc1ccc(/C=C/c2cc(F)cc(F)c2)cc1 here
105

====

Test system: DU-145
Assay: Anticancer activity against human DU145 cells
Assay type: functional, cell-based
Property Label: IC50

Give the reported IC50 for this molecule. CC(=O)Oc1ccc(/C=C/c2cc(F)cc(F)c2)cc1
100 µM

====

Test system: SF-268
Experiment: Antiproliferative activity against human SF268 cells assessed as cell growth at 100 uM after 48 hrs by alamar blue assay
Assay type: functional
Settings: SF-268, 48 h, read-out: Activity
Could you please report measured growth at 100 µM for the items listed next?

// worked examples, growth at 100 µM included
{"Smiles Code": "CC(=O)Oc1ccc(/C=C/c2cc(F)cc(F)c2)cc1", "Property Label": "growth at 100 µM", "Result": "1%"}
{"Smiles Code": "COc1ccc(/C=C/c2cc(F)cc(F)c2)cc1", "Property Label": "growth at 100 µM", "Result": "111%"}
{"Smiles Code": "COc1cc(/C=C/c2ccc(F)cc2)cc(OC)c1", "Property Label": "growth at 100 µM", "Result": "105%"}

Supply reported growth at 100 µM belonging to this compound: Fc1ccc(/C=C/c2cc(F)cc(F)c2)cc1
111%

====

Tested on: SK-OV-3
Experiment: Anticancer activity against human SKOV3 cells
Type: functional, cell-based
Property Label: IC50 (µM)
One number for each entry, in µM.

Give me measured IC50, please, for this compound: CC(=O)Oc1ccc(/C=C/c2cc(F)cc(F)c2)cc1
83.1

Data provenance: ChEMBL document CHEMBL1153030
